Tested on: SN12C
Test: NCI tumour cell line growth inhibition, 48 h
Active and inactive are the calls of the source. No stated cut-off is given here; in the data, active = GI50 up to about 1.1 µM and inactive = higher.
Use one of these outcomes when replying: y for active, n for inactive

>>> qualitative_label("CC1=NCCN=C(C)C1/N=N/c1ccc2[nH]c(C)nc2c1")
"n"
>>> qualitative_label("C/C(CC(=O)Nc1cccc(Cl)c1C)=N\\N=C(N)N")
"n"
>>> qualitative_label("C=C1C(=O)O[C@H]2[C@H](OC(C)=O)[C@@H](C)CCC/C(C)=C/CC[C@@]3(C)O[C@@H]3C[C@@H]12")
"n"

// outcome(item) with item = "CCc1cccc(C)c1NC(=O)CCc1nnc(S)[nH]1"
n

Which outcome was entered for the molecule "CCOC(=O)/C=C(/C(=O)OCC)n1cc(C)c(=O)n(Cc2cnnn2CCCCOC(C)=O)c1=O" in this test?
n

What call does the record list for "COc1ccc(-c2cc(-c3ccc(Nc4ccnc5cc(Cl)ccc45)cc3)nc(N)c2C#N)c2ccccc12" ?
n
